Molecular target: T1, human erythropoietin receptor (EpoR) on human erythroleukemic cells (human, UniProt P19235 25-508)
T1 sequence (looked up): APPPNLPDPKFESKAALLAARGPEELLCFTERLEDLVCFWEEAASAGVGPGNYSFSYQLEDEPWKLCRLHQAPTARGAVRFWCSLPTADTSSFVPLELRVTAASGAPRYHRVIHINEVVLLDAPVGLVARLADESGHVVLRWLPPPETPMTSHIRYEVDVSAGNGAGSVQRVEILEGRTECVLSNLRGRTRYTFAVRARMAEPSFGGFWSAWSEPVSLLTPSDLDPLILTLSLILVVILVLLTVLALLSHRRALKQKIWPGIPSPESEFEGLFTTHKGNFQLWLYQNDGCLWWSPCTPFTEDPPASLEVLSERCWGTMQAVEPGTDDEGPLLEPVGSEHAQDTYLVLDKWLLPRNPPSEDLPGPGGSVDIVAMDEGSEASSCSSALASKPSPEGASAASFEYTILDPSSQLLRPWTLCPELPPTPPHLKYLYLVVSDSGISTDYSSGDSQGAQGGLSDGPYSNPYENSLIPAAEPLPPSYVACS
Experiment: cell-based or functional assay
For each record, write down the corresponding Emax (cell proliferation, absorbance).

Reported Emax (cell proliferation, absorbance) of Ab12.118 (antibody, IgG2, V domains shown) VH: QVQLQESGPGLVKPSETLSLTCTVSGASISSYYWSWIRQPPGKGLEWIGYIGYSGSTNYNPSLKSRVTISVDTSKNQFSLKLRSVTAADTAVYYCARERLGIGDYWGQGTLVTVSS VL: DIQLTQSPSSLSASVGDRVTITCRASQGIRNDLGWYQQKPGKAPKRLIYAASSLQSGVPSRFSGSGSGTEFTLTISSLQPEDFATYYCLQHNTYPPTFGQGTKVEIK : 2.65 absorbance (OD 490 nm)

Reported Emax (cell proliferation, absorbance) of Ab12.119 (antibody, IgG2, V domains shown) VH: QVQLQESGPGLVKPSETLSLTCTVSGASISSYYWSWIRQPPGKGLEWIGYIYGSGSTNYNPSLKSRVTISVDTSKNQFSLKLRSVTAADTAVYYCARERLGIGDYWGQGTLVTVSS VL: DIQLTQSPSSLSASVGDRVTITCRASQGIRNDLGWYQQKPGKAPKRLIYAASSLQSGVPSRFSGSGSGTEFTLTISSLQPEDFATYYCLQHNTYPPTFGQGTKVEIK : 2.53 absorbance (OD 490 nm)

Reported Emax (cell proliferation, absorbance) of Ab12.122 (antibody, IgG2, V domains shown) VH: QVQLQESGPGLVKPSETLSLTCTVSGASISSYYWSWIRQPPGKGLEWIGYIYGEGSTNYNPSLKSRVTISVDTSKNQFSLKLRSVTAADTAVYYCARERLGIGDYWGQGTLVTVSS VL: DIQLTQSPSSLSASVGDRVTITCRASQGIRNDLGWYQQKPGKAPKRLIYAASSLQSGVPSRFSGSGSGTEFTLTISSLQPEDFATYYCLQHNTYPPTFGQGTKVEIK : 2.4 absorbance (OD 490 nm)
